assay: qHTS of pediatric cancer cell lines to identify multiple opportunities for drug repurposing: Primary screen for control Hh wild type fibroblast cells (AID 1347106); conditions: Hh wild-type fibroblast viability, CellTiter-Glo luminescence, 48 h; series mostly up to 46 µM; also: nearly all actives have a fitted effect of over 55% in size; also: potency is read from the fitted curve at half-maximal effect
Inconclusive results are not listed. Activity calls are given as the source filed them. Calls follow the shape of the dose curve; as a rule, active = well fitted cell-killing curve with a large enough effect; inconclusive = small, poorly fitted or top-dose-only effect; inactive = flat fitted curve, though single readings scatter.
MEASURED_QUANTITY: Potency

>  <COMPOUND>
CCOC(=O)[C@H](CCc1ccccc1)N[C@@H](C)C(=O)N1[C@@H](C(=O)O)C[C@H]2CCC[C@@H]21

>  <RESULT>
inactive

$$$$
>  <COMPOUND>
CC(=O)[C@]1(O)Cc2c(O)c3c(c(O)c2[C@@H](O[C@H]2C[C@H](N)[C@@H](O)[C@H](C)O2)C1)C(=O)c1ccccc1C3=O

>  <RESULT>
3.72 µM (active)

$$$$
>  <COMPOUND>
Cc1cnc(NC(=O)Nc2cc(Br)c(C)cc2OC[C@@H]2CNCCO2)cn1

>  <RESULT>
inactive

$$$$
>  <COMPOUND>
CC(C(C)N1CC(=O)NC(=O)C1)N1CC(=O)NC(=O)C1 (centres undefined)

>  <RESULT>
inactive

$$$$
>  <COMPOUND>
N#CC(=C(O)c1ccc(Cl)cc1Cl)c1nc2cc(Cl)ccc2c(=O)[nH]1

>  <RESULT>
inactive

$$$$
>  <COMPOUND>
OCCN1C[C@H](O)[C@@H](O)[C@H](O)[C@@H]1CO

>  <RESULT>
inactive

$$$$
>  <COMPOUND>
CN(C)c1ccc(C(=O)NCCCCCCC(=O)NO)cc1

>  <RESULT>
3.72 µM (active)

$$$$
>  <COMPOUND>
CCNC(=O)c1cc2c(-c3cc(OCCN4CCCC4)c(Cl)cc3Cl)nc(N)nc2s1

>  <RESULT>
inactive

$$$$
>  <COMPOUND>
Cn1cc(CNCC2CCN(c3ncc(C(=O)NO)cn3)CC2)c2ccccc21

>  <RESULT>
2.64 µM (active)

$$$$

----------
experiment: Quantitative High-Throughput drug screen in 47 multiple myeloma cell lines against the NCATS MIPE library collection: OCIMY1_PLB cell viability assay (AID 1918979); conditions: OCI-MY1 myeloma viability, CellTiter-Glo ATP, 48 h; series mostly up to 45.8 µM; also: nearly all actives have a fitted effect of over 35% in size;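 as to viability: 100% = DMSO-only wells and 0% = cell-free media-only wells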
Inconclusive results are not listed. The source made the active and inactive calls. Calls follow the shape of the dose curve; as a rule, active = well fitted cell-killing curve with a large enough effect; inconclusive = small, poorly fitted or top-dose-only effect, or effect the other way; inactive = no such curve, though single readings can be large or run the other way. Positions of bridges follow the written chain, without caps; N, C: chain ends. Non-standard residues stand in square brackets, D forms with d. Residues, ends and D or L forms follow the SMILES beside them. ξ: configuration not given here. *: point of attachment. Octanoyl(6-Me) = CCC(C)CCCCC(=O)*; ξThr(3R) = C[C@@H](O)C(N)C(=O)O; dDab = NCC[C@@H](N)C(=O)O; Dab = NCC[C@H](N)C(=O)O
Labels: 1 for active, -1 for inactive

>  <COMPOUND>
CC(C)c1cc(C(C)C)c(CC(=O)NS(=O)(=O)Oc2c(C(C)C)cccc2C(C)C)c(C(C)C)c1

>  <LABEL>
1

$$$$
>  <COMPOUND>
COC1=C2C[C@@H](C)C[C@H](OC)[C@@H](O)[C@@H](C)C=C(C)[C@H](OC(N)=O)[C@@H](OC)C=CC=C(C)C(=O)NC(=CC1=O)C2=O

>  <LABEL>
1

$$$$
>  <COMPOUND>
C[C@](Cc1c[nH]c2ccccc12)(NC(=O)OC1C2CC3CC(C2)CC1C3)C(=O)NC[C@H](NC(=O)CCC(=O)O)c1ccccc1 (stereo not given in full)

>  <LABEL>
-1

$$$$
>  <COMPOUND>
CCC(C)CCCCC(=O)N[C@@H](CCN)C(=O)NC(C(=O)N[C@H](CCN)C(=O)N[C@@H]1CCNC(=O)C([C@@H](C)O)NC(=O)[C@@H](CCN)NC(=O)[C@@H](CCN)NC(=O)[C@@H](CC(C)C)NC(=O)[C@H](Cc2ccccc2)NC(=O)[C@H](CCN)NC1=O)[C@@H](C)O (stereo partly drawn) ({Octanoyl(6-Me)}-[Dab][ξThr(3R)][dDab][dDab][Dab]F[dL][dDab][dDab][ξThr(3R)]; lactam 4-C)

>  <LABEL>
-1

$$$$
>  <COMPOUND>
CC(N[C@H]1CCCC[C@H]1NC(=O)c1ccc(Cl)cc1)c1cccc2ccccc12 (stereo not given in full)

>  <LABEL>
-1

$$$$

----------
system: KB-3-1; assay: Cytotoxic Profiling of Annotated Libraries Using Quantitative High-Throughput Screening (AID 1296008); details: Five cell lines viability, CellTiter-Glo ATP luminescence, 48-72 h; hits give low values; also: % is scaled to controls: 0 for no effect and ±100 for the full control effect; nearly all actives have a fitted effect of over 60% in size
Results filed as inconclusive are left out. Active and inactive are the calls of the source. The call rests on the fitted dose curve; in most records, active means well fitted inhibition curve with a large enough effect; inconclusive means small, poorly fitted or top-dose-only effect; inactive means flat fitted curve, though single readings scatter.

>  <MOLECULE>
CC(=O)OCC(=O)[C@@]12N=C(C)O[C@H]1C[C@H]1[C@@H]3CCC4=CC(=O)C=C[C@]4(C)[C@@H]3[C@@H](O)C[C@@]12C

>  <max response>
7.6% (inactive)

$$$$
>  <MOLECULE>
CCCCOc1ccc(C(=O)Nc2ccc(F)cc2F)cc1

>  <max response>
0.701% (inactive)

$$$$
>  <MOLECULE>
c1coc(CNc2ncnc3nc[nH]c23)c1

>  <max response>
-3.01% (inactive)

$$$$
>  <MOLECULE>
CN1C(C(=O)Nc2ccccn2)=C(O)c2sc(Cl)cc2S1(=O)=O

>  <max response>
3.99% (inactive)

$$$$
>  <MOLECULE>
C[C@H]1O[C@H](O[C@H]2[C@H](O)[C@@H](O)[C@@H](O[C@H]3[C@H](O)[C@@H](O)C(O)O[C@H]3CO)O[C@H]2CO)[C@H](O)[C@@H](O)[C@H]1N[C@H]1C=C(CO)[C@@H](O)[C@H](O)[C@@H]1O (stereo partly drawn)

>  <max response>
4.29% (inactive)

$$$$
>  <MOLECULE>
C[C@@H]1C(=O)O[C@H]2CC34[C@H]5C[C@@H](C(C)(C)C)C36[C@H](OC(=O)[C@@H]6O)O[C@@]4(C(=O)O5)[C@]21O (stereo partly drawn)

>  <max response>
2.09% (inactive)

$$$$
>  <MOLECULE>
CCCCCCCCCCCC(CC1OC(=O)C1CCCCCC)OC(=O)C(CC(C)C)NC=O (stereo not drawn)

>  <max response>
7.07% (inactive)

$$$$
>  <MOLECULE>
C[C@@H]1CC[C@@]2(OC1)OC1CC3C4CC=C5CC(O)CCC5(C)C4CCC3(C)C1[C@@H]2C (stereo partly drawn)

>  <max response>
-6.71% (inactive)

$$$$

----------
experiment: Quantitative High-Throughput drug screen in 47 multiple myeloma cell lines against the NCATS MIPE library collection: KHM11_PLB cell viability assay (AID 1918962); settings: KHM11 myeloma cell viability, CellTiter-Glo ATP luminescence, 48 h; series mostly up to 45.8 µM; also: nearly all actives have a fitted effect of over 35% in size
Results filed as inconclusive are left out. The source made the active and inactive calls. Calls come from the whole dose curve; as a rule, active = well fitted cell-killing curve with a large enough effect; inconclusive = small, poorly fitted or top-dose-only effect, or effect the other way; inactive = no such curve, though single readings can be large or run the other way.
Labels: y (active), n (inactive)

>  <COMPOUND>
CC(=O)O[C@]1(C(C)=O)CC[C@H]2[C@@H]3C=C(C)C4=CC(=O)CC[C@]4(C)[C@@H]3CC[C@@]21C

>  <LABEL>
n

$$$$
>  <COMPOUND>
OCCNC1CCCc2c1[nH]c1ccc(-c3ccccc3)cc21 (stereo not given)

>  <LABEL>
y

$$$$
>  <COMPOUND>
Cn1cc(CNCC2CCN(c3ncc(C(=O)NO)cn3)CC2)c2ccccc21

>  <LABEL>
y

$$$$
>  <COMPOUND>
COc1cccc2c1C(=O)c1c(O)c3c(c(O)c1C2=O)C[C@@](O)(C(C)=O)C[C@H]3O[C@H]1C[C@H](N)[C@H](O)[C@H](C)O1

>  <LABEL>
y

$$$$
>  <COMPOUND>
CCCCCCCCc1ccc(CCC(N)(CO)CO)cc1

>  <LABEL>
y

$$$$
>  <COMPOUND>
CCc1ccc(C(=O)Nc2cc(CN3CCN(C)CC3)cc(C(F)(F)F)c2)cc1C#Cc1cnc2ccnn2c1

>  <LABEL>
y

$$$$
>  <COMPOUND>
CC(Cc1ccc(O)c(O)c1)(NN)C(=O)O (stereo not given)

>  <LABEL>
n

$$$$
>  <COMPOUND>
COc1cc(C=CC(=O)CC(=O)C=Cc2ccc(O)c(OC)c2)ccc1O

>  <LABEL>
y

$$$$
>  <COMPOUND>
COc1cc(C(C)C)c(Oc2cnc(NC(CO)CO)nc2N)cc1I

>  <LABEL>
n

$$$$
>  <COMPOUND>
CC(=O)NC(CS)C(=O)O (stereo not given)

>  <LABEL>
n

$$$$

----------
test: Quantitative High-Throughput drug screen in 47 multiple myeloma cell lines against the NCATS MIPE library collection: Karpas25_ECACC cell viability assay (AID 1918968; also: nearly all actives have a fitted effect of over 35% in size; also: potency is read from the fitted curve at half-maximal effect); conditions: Karpas25 myeloma viability, CellTiter-Glo ATP, 48 h; series mostly up to 45.8 µM
Records with an inconclusive call do not appear. The source made the active and inactive calls. The call rests on the fitted dose curve; in most records, active means well fitted cell-killing curve with a large enough effect; inconclusive means small, poorly fitted or top-dose-only effect, or effect the other way; inactive means no such curve, though single readings can be large or run the other way.
MEASURED_QUANTITY: Potency

>  <MOLECULE>
C[C@@H]1CC[C@@]2(OC1)OC1CC3C4CC=C5CC(O)CCC5(C)C4CCC3(C)C1[C@@H]2C (some centres undefined)

>  <MEASURED_QUANTITY>
Potency

>  <RESULT>
inactive

$$$$
>  <MOLECULE>
C[C@H]1COc2c(N3CCN(C)CC3)c(F)cc3c(=O)c(C(=O)O)cn1c23

>  <MEASURED_QUANTITY>
Potency

>  <RESULT>
inactive

$$$$
>  <MOLECULE>
CN(C)CC(=O)N1CCC(c2ccc(NC(=O)c3ncc(C#N)[nH]3)c(C3=CCCCC3)c2)CC1

>  <MEASURED_QUANTITY>
Potency

>  <RESULT>
23.5 µM (active)

$$$$
>  <MOLECULE>
O=C(O)C=Cc1ccc(Cn2ccnc2)cc1

>  <MEASURED_QUANTITY>
Potency

>  <RESULT>
inactive

$$$$
>  <MOLECULE>
COc1ccc(C=Cc2cc(OC)c(OC)c(OC)c2)cc1NC(=O)[C@H](N)CO

>  <MEASURED_QUANTITY>
Potency

>  <RESULT>
0.001 µM (active)

$$$$
>  <MOLECULE>
CC(=O)O[C@H]1C[C@@H]2CC[C@H]3[C@H]4C[C@H]([N+]5(C)CCCCC5)[C@@H](OC(C)=O)[C@@]4(C)CC[C@@H]3[C@@]2(C)C[C@H]1N1CCCCC1

>  <MEASURED_QUANTITY>
Potency

>  <RESULT>
inactive

$$$$
>  <MOLECULE>
Cc1ccccc1C(=O)Nc1ccc(C(=O)N2CCCC(O)c3cc(Cl)ccc32)c(C)c1 (centres undefined)

>  <MEASURED_QUANTITY>
Potency

>  <RESULT>
14.8 µM (active)

$$$$
>  <MOLECULE>
COc1cc2c(cc1O)CCC1C2CC[C@@]2(C)C1CC[C@@H]2O (some centres undefined)

>  <MEASURED_QUANTITY>
Potency

>  <RESULT>
2.96 µM (active)

$$$$
>  <MOLECULE>
C[C@H](NC(=O)Cc1cc(F)cc(F)c1)C(=O)N[C@H](C(=O)OC(C)(C)C)c1ccccc1

>  <MEASURED_QUANTITY>
Potency

>  <RESULT>
inactive

$$$$
